Give measured log10(IC50) for each item. Keep answers brief.
target: Bifunctional epoxide hydrolase 2 (Homo sapiens, UniProt P34913); test: Inhibition of recombinant human sEH using PHOME as substrate preincubated for 30 mins followed by substrate addition measured for 30 mins by fluorescence photometric method; settings: read-out: IC50
Sequence (P34913 whole entry): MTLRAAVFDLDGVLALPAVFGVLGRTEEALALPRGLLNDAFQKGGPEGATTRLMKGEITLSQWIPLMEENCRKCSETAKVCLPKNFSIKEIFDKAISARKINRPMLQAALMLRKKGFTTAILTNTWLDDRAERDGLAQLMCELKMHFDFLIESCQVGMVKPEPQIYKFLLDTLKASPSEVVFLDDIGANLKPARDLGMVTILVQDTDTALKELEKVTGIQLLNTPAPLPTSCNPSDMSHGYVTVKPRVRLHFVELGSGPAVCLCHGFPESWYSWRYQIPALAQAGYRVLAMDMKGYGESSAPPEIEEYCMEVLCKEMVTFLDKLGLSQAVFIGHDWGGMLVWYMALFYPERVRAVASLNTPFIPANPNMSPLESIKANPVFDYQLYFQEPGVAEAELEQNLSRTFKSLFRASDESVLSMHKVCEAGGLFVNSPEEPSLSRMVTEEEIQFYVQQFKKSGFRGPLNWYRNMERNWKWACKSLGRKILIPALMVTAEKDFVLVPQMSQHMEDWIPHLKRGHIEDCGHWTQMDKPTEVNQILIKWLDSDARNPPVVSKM
In our notation, the value equals log10 of IC50 in nM.

Worked examples, 5 compounds total:
CHEMICAL STRUCTURE	SUBJECT OF TEST	MEASURED
Cc1cc(C(=O)O)ccc1CNC(=O)c1ccc(C(C)(C)C)cc1	Bifunctional epoxide hydrolase 2 (Homo sapiens, UniProt P34913)	2.83
CC(C)(C)c1ccc(C(=O)NCc2ccc(NC(=O)C(F)(F)F)cc2)cc1	Bifunctional epoxide hydrolase 2 (Homo sapiens, UniProt P34913)	2.82
CNC(=O)c1ccc(CNC(=O)c2ccc(C(C)(C)C)cc2)cc1	Bifunctional epoxide hydrolase 2 (Homo sapiens, UniProt P34913)	3.28
O=C(O)c1ccc(CNC(=O)c2ccc(Cl)c(Cl)c2)cc1	Bifunctional epoxide hydrolase 2 (Homo sapiens, UniProt P34913)	4.02
CC(C)(C)c1ccc(C(=O)NCc2ccc(OCC(=O)O)cc2)cc1	Bifunctional epoxide hydrolase 2 (Homo sapiens, UniProt P34913)	4.28

I need log10(IC50) for every entry listed below, if you could help.
1. CC(C)(C)c1ccc(C(=O)NCc2ccc(S(N)(=O)=O)cc2F)cc1
2. CC(C)(C)c1ccc(C(=O)NCc2ccc(CO)cc2)cc1
3. CC(C)(C)c1ccc(C(=O)NCc2ccc(C=O)cc2)cc1

1. 2.14
2. 3.31
3. 2.71
